Target: T1, human EpCAM expressed on cells (CHO, Colo205, 293) (human, UniProt P16422 24-314)
T1 construct: whole, on cells; also called CHO cells expressing human EpCAM; Colo205 cells expressing human EpCAM
T1 sequence (looked up): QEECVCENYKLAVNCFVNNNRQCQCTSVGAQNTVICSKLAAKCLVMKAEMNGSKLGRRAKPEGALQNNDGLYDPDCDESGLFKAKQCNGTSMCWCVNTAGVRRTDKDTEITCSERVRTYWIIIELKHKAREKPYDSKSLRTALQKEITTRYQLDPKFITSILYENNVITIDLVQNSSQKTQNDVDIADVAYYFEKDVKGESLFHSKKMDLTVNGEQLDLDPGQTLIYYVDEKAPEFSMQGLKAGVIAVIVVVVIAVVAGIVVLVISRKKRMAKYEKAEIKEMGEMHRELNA
Assay: FACS on 293 cells expressing human EpCAM, pH 7.4
readout: EC50 (µg/mL)
I only need the number, in µg/mL, no unit after it.

Task item: Consider the binder BAP-105.4-01-05 (antibody, V domains shown, Humanized) VH: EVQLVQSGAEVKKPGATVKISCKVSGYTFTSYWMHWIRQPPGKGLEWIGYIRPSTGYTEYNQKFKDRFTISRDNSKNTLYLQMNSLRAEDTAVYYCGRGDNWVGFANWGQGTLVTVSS VL: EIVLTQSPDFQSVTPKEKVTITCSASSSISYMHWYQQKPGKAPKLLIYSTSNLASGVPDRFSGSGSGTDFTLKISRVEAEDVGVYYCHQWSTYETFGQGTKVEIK and give its recorded EC50.
Reply: 0.154

Provenance of the data: patent US20260053904A1
